Test system: P. falciparum 3D7 growth, pLDH absorbance
Experiment: blood-stage malaria parasite growth potency – strain 3D7, dose response (AID 2305)
measurement-kind: IC50 (µM)

>>> number("O=C1C[C@@H]([S@@](=O)Cc2nccs2)N1CCOCCCCCCc1ccc(Cl)cc1")
1.02
>>> number("CCC/C=C/c1c(CNCCCNc2cc(=O)c3ccccc3[nH]2)sc(CC)c1Br")
0.89
>>> number("CC(C)Cn1c(Sc2ccc(C#N)c([N+](=O)[O-])c2)nnc1-c1ccccc1")
1.09
>>> number("Cc1cnc(CCNC(=O)c2cc(-c3ccc(Cl)cc3)cs2)[nH]1")
0.24
>>> number("CCc1ccc(NC(=O)N(CCCN2CCN(C)CC2)Cc2csc(-c3ccc(CNCc4ccccc4)cc3)n2)cc1")
1.01
>>> number("C=C(F)c1sc(CNCCCNc2nc3ccccc3[nH]2)c(C)c1Br")
0.37
>>> number("CN1CCC(NCc2ccc(-c3cnc(NCc4ccccc4)nc3)cc2)CC1")
0.83
>>> number("C=C(C)COc1ccc(-c2n[nH]c(C(F)(F)F)c2-c2ccccc2OC)c(O)c1")
0.78
>>> number("CCn1cc(C(=O)O)c(=O)c2cc(F)c(N3CCN(S(=O)(=O)c4ccc(N)cc4)CC3)cc21")
0.92
>>> number("OCCNc1nc(Nc2ccc(Cl)cc2)nc2ccccc12")
0.71

---

Test system: P. falciparum 3D7 growth, pLDH absorbance
Assay: blood-stage malaria parasite growth potency – strain 3D7, dose response (AID 2305)
measurement-kind: IC50

>>> result("CCCCCC1c2[nH]c3ccccc3c2CCN1C(=O)OCc1ccccc1 (stereo not given)")
"0.39 µM"
>>> result("O=C(NCCCCCN1CCC(c2c[nH]c3ccccc23)CC1)c1ccc(Cl)c(Cl)c1")
"1.36 µM"
>>> result("CCCNCc1ccc(-c2ccc(CN(CC3CCCO3)C(=O)COc3ccccc3Cl)cc2)nc1 (stereo not given)")
"1.18 µM"
>>> result("N#Cc1ccc(-c2ccc(C(=O)Nc3ccc4c(c3)CCN(C3CCC3)CC4)nc2)cn1")
"1.16 µM"
>>> result("CN(C)Cc1c(O)ccc2[nH]c(-c3cccc(F)c3)nc12")
"1 µM"

---

Tested on: P. falciparum 3D7 growth, pLDH absorbance
Test: blood-stage malaria parasite growth potency – strain 3D7, dose response (AID 2305)
measurement-kind: IC50 (nM)

>>> number("Cc1cc(Nc2ccc(Cl)cc2)n2nc(C(F)(F)F)nc2n1")
120
>>> number("C[C@H](Cc1ccc(C(=O)OCCOC(=O)c2ccc(C[C@@H](C)NC[C@H](O)c3cccc(C(F)(F)F)c3)cc2)cc1)NC[C@H](O)c1cccc(C(F)(F)F)c1")
820
>>> number("Cn1cnc(CCNC(=O)c2ccc(-c3cccc(-c4nc5ccc(F)cc5[nH]4)c3)cc2)c1")
680
>>> number("Cc1cccc(C(=O)Nc2ccnc(N(C)C3CCN(Cc4cccc(O)c4)CC3)c2)c1")
940

---

Here, each record is paired with measured IC50 data.
Tested on: P. falciparum 3D7 growth, pLDH absorbance
Assay: blood-stage malaria parasite growth potency – strain 3D7, dose response (AID 2305)
measurement-kind: IC50 (µM)

>>> number("CCCC(C)NC(=O)[C@H]1CNCCN1C(=O)CCCc1ccccc1 (some centres undefined)")
0.19
>>> number("CS(=O)(=O)c1ccc(CNCc2cccc(-c3cccc(-c4nc5ccccc5[nH]4)c3)c2)cc1")
0.59
>>> number("O=C1COc2ccccc2N1C/C=C(\\CN1CCC(c2ccccc2)CC1)c1cc(Cl)cc(Cl)c1")
0.21
>>> number("COc1ccc2ccc(OC)c(CNCCCCCCNCc3c(OC)ccc4ccc(OC)cc34)c2c1")
0.7
>>> number("NC1=NC(c2ccccc2)(c2ccccc2)C(=O)N1C1CCCCC1")
0.66
>>> number("COc1cc2nccc(Nc3ccc(Oc4ccccc4)cc3)c2cc1OC")
0.68
>>> number("CN1CCN(c2cc3c(cc2Cl)CCN3C(=O)Nc2ccc(NC(=O)c3ccc(C(F)(F)F)cc3)cc2)CC1")
0.51
>>> number("CN1CCN(Cc2ccc(-c3ccc4c(Nc5ccc(F)cc5Cl)ccnc4c3)o2)CC1")
0.14
>>> number("O=C(/C=C/c1ccc(Cl)c(Cl)c1)N1CCC(CN2[C@@H]3CC[C@H]2CC(c2c[nH]c4ccccc24)C3)CC1 (some centres undefined)")
0.74
>>> number("COc1cc(C(=O)N2CCOC(CCN3CCC(c4ccc(Cl)cc4)CC3)(c3ccc(Cl)c(Cl)c3)C2)cc(OC)c1OC (centres undefined)")
0.18
>>> number("O=C(Nc1cccc(-c2ccc(-c3nc4ccccc4[nH]3)cc2)c1)c1csnn1")
1.07
>>> number("Nc1cccc(CNCc2cccc(-c3csc(-c4nc5ccccc5[nH]4)c3)c2)c1")
0.68
>>> number("CS(=O)(=O)Nc1cccc(-c2cnc3[nH]cc(-c4ccc(CCC(=O)O)cc4)c3c2)c1")
1.06
>>> number("Cc1ccc(-c2cc3nc4c(c(NCCCn5ccnc5)n3n2)CCC4)cc1")
0.92
>>> number("CNC(=O)c1[nH]c(-c2ccccc2)nc1NC(C)=O")
0.15
>>> number("Cc1cc(I)ccc1Nc1nc2nonc2nc1Nc1ccc(I)cc1C")
0.51
>>> number("CCCc1ccc(Cc2cnc3nc(N)nc(N)c3c2C)cc1")
0.28
>>> number("CCOc1ccc2nc(N(CCCn3ccnc3)C(=O)C=Cc3cccs3)sc2c1")
0.78
>>> number("O=C(NCCCCN1CCC(c2ccc3c(c2OCc2ccncc2)CCCC3)CC1)c1ccc(NC(=O)c2ccc(Cl)cc2)cc1")
0.22
>>> number("Cc1cc(Nc2nc(Nc3cccc(Cl)c3)nc3ccccc23)n[nH]1")
0.29
>>> number("Cc1[nH]c2cc(Cl)ccc2c1C1=CCN(CCCCC2(C)C(=O)Nc3c(F)cccc32)CC1 (centres undefined)")
0.84
>>> number("CCN(CC)CCn1c(=N)n(CC(=O)c2ccc(-c3ccccc3)cc2)c2ccccc21")
1.14
>>> number("CCOc1ccc(NC(=O)c2cn3nc(-c4ccc(OCC)cc4)cc3nc2C2CCNCC2)cc1")
0.51
>>> number("COc1cc2ccccc2cc1CNCCCCCCNCc1cc2ccccc2cc1OC")
0.72
>>> number("O=C(CCc1cccnc1)Nc1cccc(-c2ccc(-c3nc4ccc(C(F)(F)F)cc4[nH]3)cc2)c1")
0.87
>>> number("COc1ccc(-c2csc3ncnc(Cl)c23)cc1")
0.78
>>> number("COc1cc(N)cc2sc(N)nc12")
0.25
>>> number("CCC(C)(C)c1ccc(OCCCC(=O)Nc2ccc(Cl)c([N+](=O)[O-])c2)c(C(C)(C)CC)c1")
0.97
>>> number("COC(=O)c1ccc(NC(=O)c2ccc(CCN3CCC(c4nc(COCC(F)(F)F)c(-c5ccc(F)cc5)o4)CC3)cc2)cc1")
1.04
>>> number("CCCCCc1cc(OC(=O)CCCN(CC)CC)c2c(c1)OC(C)(C)C=C2C1=CCN(Cc2ccc3ccccc3c2)CC1")
0.16
>>> number("CC(C)c1ncc(-c2ccncc2)c(C2CCC(CNC(=O)c3cccnc3)CC2)n1 (centres undefined)")
0.78
>>> number("CC(C)(C)C1CCc2onc(C(=O)Nc3cc(Cl)ccc3O)c2C1 (centres undefined)")
0.78
>>> number("O=c1ccc(-c2nc3cc(Cl)c(Cl)cc3n2Cc2ccc(Cl)cc2Cl)c[nH]1")
1.11
>>> number("Cc1cc(NCC2CCN(CC3CCCCC3)C2)nc(Nc2ccc(Br)cc2)n1 (centres undefined)")
0.88
>>> number("O=C(/C=C/c1ccc(Cl)c(Cl)c1)NCCCCCN1CCC(NC(=O)Nc2cccc(F)c2)CC1")
0.77
>>> number("O=C(NCCN1Cc2ccccc2C1=O)c1ccc(Oc2ccc(C(=O)NCCN3Cc4ccccc4C3=O)cc2)cc1")
0.36
>>> number("CN1CCCC(CN2CCN(Cc3ccc(-c4ccc(-c5nc6ccccc6[nH]5)cc4)cc3)CC2)C1 (centres undefined)")
0.14
>>> number("Cc1ccc2c(NN=Cc3cccc(F)c3)cc(C)nc2c1")
0.86
>>> number("CS(=O)(=O)CCNc1cc(N2CCc3ncnc(Nc4ccc(OCc5cccc(F)c5)c(Cl)c4)c3C2)ncn1")
0.87

---

Tested on: P. falciparum 3D7 growth, pLDH absorbance
Assay: blood-stage malaria parasite growth potency – strain 3D7, dose response (AID 2305)
pIC50: −log10 of the molar value.
measurement-kind: pIC50

>>> number("Cc1ccc(-c2[nH]n3c(=O)c4c(nc3c2C)CCCC4)cc1")
6.66
>>> number("CCCCCN1CCCC1CNS(=O)(=O)c1ccc(C(=O)Nc2ccc(C(F)(F)F)cc2)cc1 (stereo not given)")
6.08
>>> number("CC1(C)N=C(N)NC(Nc2ccc(Cl)cc2)=N1")
6.47
>>> number("COc1cc2nc(NCc3cccc(CNC(=O)c4ccc(-c5ccc(C(C)=O)cc5)cc4)c3)nc(N)c2cc1OC")
6.92
>>> number("O=S(=O)(NC1CCN(c2ccnc3cc(Cl)ccc23)C1)c1cccs1 (stereo not given)")
6.15
>>> number("O=C(Nc1cccc(CN2CCN(Cc3ccc(O)cc3)CC2)c1)c1ccc(Cl)c(Cl)c1")
6.60
>>> number("O=C(/C=C/c1ccc([N+](=O)[O-])cc1)N1CCC(NS(=O)(=O)c2ccc(F)cc2)CC1")
6.09
>>> number("Clc1ccccc1/C=C/c1cncnc1Nc1ccc2nc(Cc3ccccc3)[nH]c2c1")
6.04
>>> number("Cc1c(Cl)ccc2sc(N3CCN(C(=O)c4ccc([N+](=O)[O-])o4)CC3)nc12")
6.12
>>> number("Cc1cccc2[nH]c(-c3cccc(-c4ccc(NC(=O)c5ccncc5)cc4)c3)nc12")
6.30
>>> number("Cn1c(NC2CCN(CC3CCN(C(=O)/C=C/c4ccc(Cl)c(Cl)c4)CC3)CC2)nc2ccccc21")
6.82
>>> number("Cc1cccc2[nH]c(-c3ccc(-c4cccc(C(=O)NCCc5cn(C)cn5)c4)s3)nc12")
6.06
>>> number("COc1cc(Cc2cnc(N)nc2N)c2c(c1OC)OC(C)(C)C=C2")
5.92
>>> number("COc1cc(Cc2cnc(N)nc2N)cc(OCCCCCCN)c1OC")
6.72
>>> number("CC(=O)Nc1ccc(S(=O)(=O)N(Cc2cccc(Oc3ccccc3)c2)C2CCN(C/C=C(\\C)CCC=C(C)C)CC2)cc1")
6.72
>>> number("CC1(C)[C@H]2CC[C@@H](CNc3nc(NCCc4cnc[nH]4)nc(Nc4ccc5c(c4)OCO5)n3)[C@@H]1C2")
6.27
>>> number("O=C(NCCc1ccccc1F)c1cc(Br)cc(N2CCN(c3ccncc3)CC2)c1")
6.12
>>> number("O=S(=O)(Nc1cccc(CCN2CCCCC2CCN2CCCC2)c1)c1ccc(-c2ccccc2)cc1 (stereo not given)")
5.96
>>> number("COc1ccc(Nc2nccc(NCC(O)c3cccc(C(F)(F)F)c3)n2)cc1 (stereo not given)")
6.05
>>> number("Cn1cccc1CCNCc1ccc(-c2cccc(-c3nc4ccccc4[nH]3)c2)cc1")
5.92

Reference source: PubChem BioAssay AID2305
